B1: ZNF449 (parent)
chain: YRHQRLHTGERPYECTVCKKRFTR

variants of: B1; test: protein stability index of a GFP-peptide fusion (GPS, HEK-293T) (PSI 1-6); higher = more stable; settings: c terminus: a fixed tail appended;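 also: lentivirally expressed fusions sorted by FACS into six bins by GFP to DsRed ratio, PSI derived from sequencing read proportions per bin multiplied by bin number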
readout-kind: protein stability index

chain-sequence: YRHTRLHTGERPYECTVCKKRFTR
protein stability index: 2.64

chain-sequence: YWHQRLHTGERPYECTVCKKRFTR
protein stability index: 1.57

chain-sequence: YRHQRLHTGLRPYECTVCKKRFTR
protein stability index: 2.13

chain-sequence: YMHQRLHTGERPYECTVCKKRFTR
protein stability index: 2.33

chain-sequence: YRHQRLHTGERPYECTVCKKRFTT
protein stability index: 2.26

chain-sequence: YRHQRLHTGERWYECTVCKKRFTR
protein stability index: 2.44

chain-sequence: YRHQRLHTGERPYECTVAKKRFTR
protein stability index: 3.39

chain-sequence: YRHQRLHTGERPYKCTVCKKRFTR
protein stability index: 2.97

chain-sequence: YRHFRLHTGERPYECTVCKKRFTR
protein stability index: 1.88

chain-sequence: YRHQRLHTGERPYECTVCHKRFTR
protein stability index: 1.55

Please give protein stability index, item by item, for the list that follows.
1. YRHQRLHTGERPYECTVWKKRFTR
2. YRHQRNHTGERPYECTVCKKRFTR

Ans.
[2.21, 2.63]

Please give protein stability index, item by item, for the list that follows.
1. YRHQRLHTGERPYETTVCKKRFTR
2. YRHQLLHTGERPYECTVCKKRFTR
3. YRHQRLHTGERPYMCTVCKKRFTR
4. YRHQRLHCGERPYECTVCKKRFTR

Ans.
2.88
2.15
2.58
2.4

Please give protein stability index, item by item, for the list that follows.
1. YRHQRLHTGERPYEFTVCKKRFTR
2. YRHQRLHTGERPYEMTVCKKRFTR
3. YRHQRLHTGERPYECTVCKKYFTR

Ans.
[3.02, 2.98, 2.49]

Origin of values: the supplement of paper PMC10567573
